Tested System: cynomolgus monkey EL (cynomolgus monkey)
Test Method Notes: Biacore; EL captured by anti-C2-tag Ab; bivalent fit
Assignment: determine reported koff for the given binders.
Answers are plain numbers, in s⁻¹.

Below: 2 binders and their reported koff.
# Binder, koff (s⁻¹)
measured = [
    ("h13B3-S4 (antibody, V domains shown) VH: QVQLVQSGAEVKKPGASVKVSCKASGYTFTEYTMHWVRQAPGQGLEWMGSINPYYGGTSYNEKFKDRVTSTRDTSISTAYMELSRLRSDDTVVYYCARYGNYVGYFDYWGQGTTVTVSS VL: EIVLTQSPATLSLSPGERATLSCRASSSVHYMYWYQQKPGQAPRLLIYYTSNLAPGIPARFSGSGSGTDFTLTISSLEPEDFAVYYCQQFTSSPYTFGGGTKVEIK", 0.00038),
    ("h23H8-S3 (antibody, V domains shown) VH: QVQLVQSGAEVKKPGASVKVSCKASGYTFTDNTIHWVRQAPGQGLEWMGHINPYYGGTNNNEKFKDRVTMTRDTSISTAYMELSRLRSDDTAVYYCARKGIYYSSPFDYWGQGTTVTVSS VL: DIQMTQSPSSLSASVGDRVTITCRASQDINNYLNWYQQKPGKAPKLLISYTSKLHSGVPSRFSGSGSGTDFTLTISSLQPEDFATYYCQQGNTLPFTFGQGTKLEIK", 0.00015),
]

[in] Recall and state the measured koff for h16B3-S1 (antibody, V domains shown) VH: EVQLVESGGGLVQPGGSLRLSCAASGFTFSGYTMSWVRQAPGKGLEWVSEISFARDRAFYPDTVKGRFTISRDNSKNTLYLQMNSLRAEDTAVYYCAKLGGRNHDYWYFDVWGQGTTVTVSS VL: DIVMTQSPDSLAVSLGERATINCRASESVEYYGTSLMQWYQQKPGQPPKLLIYAASNVESGVPDRFSGSGSGTDFTLTISSLQAEDVAVYYCQQSWKVPFTFGQGTKLEIK .
[out] 0.001
